Tested on: Mycobacterium tuberculosis
ASSAY_DETAILS: Cornell M. t heat shock assay; also: in the data most compounds retested in dose-response had high values
Type: functional, organism-based
Parameters: dose or concentration left out as unconfirmed
Out of some 69,000 compounds screened, about 950 (1.4%) showed an effect of 50% or more. This excerpt belongs to a sample that is enriched for strong results.

{"COMPOUND": "CNc1cc(CCNC(=O)CC(C)C)nc(-c2ccccn2)n1", "Percent Effect, %": 36.61}
{"COMPOUND": "CN(C)CCN1CCO[C@H]2CN(C(=O)c3ccsc3)C[C@H]21.O=C(O)C(F)(F)F.O=C(O)C(F)(F)F", "Percent Effect, %": 25.92}
{"COMPOUND": "CCc1cc(NCCCNS(C)(=O)=O)nc(-c2ccncc2)n1", "Percent Effect, %": -1.348}
{"COMPOUND": "COc1ccc(C(C)N(C)Cc2c(C3CC3)[nH]c3ncccc23)cc1.Cl (stereo not given)", "Percent Effect, %": -15.93}
{"COMPOUND": "NC(=O)c1ccc(S(=O)(=O)NCCc2ccccn2)cc1", "Percent Effect, %": 2.755}
{"COMPOUND": "O=C(O)C(F)(F)F.O=C(c1ccncc1F)N1CC[C@@H]2OC(COCC3CC3)CC[C@@H]21 (stereo not given in full)", "Percent Effect, %": -24.6}
{"COMPOUND": "CNc1cc(CCNS(=O)(=O)c2ccccc2)nc(-c2ccccn2)n1", "Percent Effect, %": 99.14}
{"COMPOUND": "Cc1nc(C2(O)CCCNCC2)sc1CCOc1ccc(F)c(F)c1.Cl (stereo not given)", "Percent Effect, %": -9.071}
{"COMPOUND": "CCCC(=O)NCCc1cc(NC)nc(-c2ccccn2)n1", "Percent Effect, %": 12.39}
{"COMPOUND": "CCOCC1CN(Cc2ccoc2)Cc2nn(C)cc21.O=C(O)C(F)(F)F (stereo not given)", "Percent Effect, %": -18.76}
